- Assay Info: soluble fraction after stress (log2 fold change); higher = more stays soluble; pooled small domains, quantitative proteomics;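 further: 20 min heating vs room temperature control held 20 min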
- Recorded Conditions: stress: 75 degC
Measurement Label: soluble fraction (log2)

>>> result_number("HMTSSVIIPKLIGKTEEEAKVALAGLNVQVLYETHGDQANGIVIKQSFEEGTKVIKGVSIVITVNKVS")
-1.91
>>> result_number("HMAQELPYEKVTMNGKMFYVYHVKAGEGLYLISRTFSVNADEILKFNPSIENGLKSGQVLYIPIK")
-1.23
>>> result_number("HMYELDIYPNPAIDKINVLLPSSTTLPVKVEIYDIMGKKVNSLLTTKKAFTIETDQFEKGIYFVKA")
0.331
>>> result_number("HMSQITEADYIPNTDKTWGELMEETGESLPNLVERYNNEMTKSNGKEQPQSIIQRIIEDYQMVS")
0.253
>>> result_number("HMTHSEYVGRHGIAATSLRPAGAATIDGSRVDVVTSGEYIEKGTPIEVMTVNGSTVRVKAVPQIP")
0.203
>>> result_number("HMGLQDLFLNSLRKSKTPVTMFLVKGVKLQGVVTWFDNFSVLLRRDGMSQLVYKHSISTIMP")
-0.0352
>>> result_number("HMTEDELLAQFEEILDGYVGKPGGLIPALQTAQKLFGYLPKRVLQLISMKLDIPYSEVTGVVSFYSFFTTV")
0.28
>>> result_number("HMPSLGGLLALLKRNRKPDAMEALDRLISKEDRPETAEALENIREKVRNMQMREAEGLLLALMEP")
-0.509
>>> result_number("HMVNEALDEFFVGLKNLYESATGKPAIAGAHFDGEPKTDFEKLMYLGYQIIRPAQAYPSALKAYERAIARS")
-0.145
>>> result_number("HMLSVRNRMSDVLKSLDDGEFHRFESLFNLEEGRLGVVVTFLAMLELAKEMLVEIVQNESLGPIYLKSR")
0.041
>>> result_number("HMHALSVKFSDEAAKTLPYDILSALRDVLALDPRPGYSRDENKIYRFEYADYNISFSVKDKTLTVLSAEK")
-2.15
>>> result_number("HMLGFELVGIRGNNPESTIIILERDDYRLVEQGQNINSSVIFSHIDGSRAYFFDGQTYTFLDI")
-2.78
>>> result_number("HMRLANGIGTVYKLSGNRRNPYIVRKTTGWEIDEESGKAKQKYITIGYAPTRAKGLEMLMDYNKNP")
-0.895
>>> result_number("HMQESVTVSAQALRRLLEKGDGDAALLYLALLRHHGTIQPRALAGELRWERPRIEAAEEALRQMGLIA")
-0.48
>>> result_number("HMSRELVILGNSMLNNALKAFHVSPASIKKKHWDKLILDYHLESKNNILIDIALGKRINVMVAHQLTSIID")
0.408
>>> result_number("HMGRELSDLELSLLRILDDKIPLLIDEAADRLQLPVAQVLSAVTIMEIDGLIRREGMRKYLRTVEVEETK")
-1.63
>>> result_number("HMAAMDMFVKLDALDAELTEQLKALPAEPDDARVERGLALLTDYDHRIKALLTEIFGGENDFDKVL")
-3.1
>>> result_number("HMGKPTPASQVATRWLAGDLPETLPVAGPAPSFETLARSVSTDFHPRAVLQELLRLGVAEEADGRVRLLK")
-0.212
>>> result_number("HMQDNDLKNQIENVLRTYPDNVFTVEKIADVLRSHGSAAFKLIVQELASLERDKVAVVTEDGKFQLNPD")
0.261
>>> result_number("HMTEELLNQRKETMLALLNDPTYVPMKLKELAMLLNLSRDQRDELREVMESLEQDGKVILTKRGKYKIP")
-0.261
>>> result_number("HMAEPSTSYTQFMDQAKEGKIKRVDVQGRTLTVTPTEGATYKITAPGDLWMVEDLRKAGVQVYGQP")
0.29
>>> result_number("HMSYDAINGYEPSDLRGSLTLEQTASMLNLPLTDVYARLGLPANYPSGATLKDGAADMGMGLSDFKHQLF")
-0.121
>>> result_number("HMVPQAVQDIKAYLASGALPYIGPATAKKIVAMFGSDALDVIAEHPEQLTAIRGLNEEKANAIHQEFRRQF")
-0.259
>>> result_number("HMTSLQDLLEELRVIRETLTGSQVLSDMQLFSQLRNLGDIKAALTRMQDNPAAARMVGEVDKLLETMFAS")
-1.97
>>> result_number("HMNAELSTVQAAEVLNVSRPFLIKLLEDGAIPHRKVGKHRRVRMEDVMSYKAAIDTEREAVLDQLAA")
-0.13
>>> result_number("HMQKDAYVPDIISKLKSSRMIVVEGTIYPLLTRLKNTGLLSYRWEESLQGPPRKYYSITEQG")
0.268
>>> result_number("HMNSHKIIDRLNQMITEKDLSEEMPAITEAFKNNERSAEDLKKYVAENLSKKLNAEEREKFVSLILQYRN")
-0.0788
>>> result_number("HMLNDMYAVMEIRGQGGELIAKLINQDGSPFYVKKGTTLQSGHVIDEITTTYVRAEKAGAKDYLYF")
-0.939
>>> result_number("HMNMAEQGISLDSEAGKARFVSQALPLLKQLPDGVFKQRMLNQLADRVEVTADFIAQQLAQLKAA")
-0.0979
>>> result_number("HMTTVTVGSKVRVKAGATFSDGAKPFAEVYNTVYDVQLLSHNGKEARIGIGDQWTGWIYISDLYLANQPAP")
-1.84
>>> result_number("HMGVSDDMARGVVRARQFLSDFAAVPLDRMTPAEAVARARQLKSELETDAKHSPWLLDVLSNA")
-0.116
>>> result_number("HMEMNPLDIQNKAAELAQQWLQLPVGERQKQMAAVRTSNPNLHAMAKQKMEEMRSQAESQGRQSLSQP")
0.324
>>> result_number("HMHKFMEQNQDRRLSRMKELIGILSEAAKTYYQESREIMSNFQYDRMYDELLELEKETGVVMAGSPTQKV")
-0.276

----------
- Assay Info: soluble fraction after stress (log2 fold change); higher = more stays soluble; pooled small domains, quantitative proteomics
- Recorded Conditions: stress: 75 degC
Known soluble fraction (log2) of a selection of sequences
Measurement Label: soluble fraction (log2)

>>> result_number("HMLSDLTPGDLVVHATHGIGRFLGIRKLELEGMTKDYITIQYRGNENLYVPVTQMDLVSRYI")
-1
>>> result_number("HMSRVTVDVNPDVLQWAIDKKGKGDIKNKFPKIDEWLNGISKPTIHQLENFAKYVSVPFGYLLLSKPPVE")
0.208
>>> result_number("HMTSVQDLLRNGDRVGYQNGSTVKYWLEEMGFHKKDLLGYVTVEEYAEALQRGSGNGGVSAIVD")
-0.811
>>> result_number("HMTATVPDSEAGIRLDVYAAALLGVSRAGAQKYIESGAVRVNGLPAPKNRRLESGDVIEAVLPDPE")
0.194
>>> result_number("HMLDLVSIGKRIKAERQKNGLTQEALAERIEVSAHYVYELERGLKAMSVPILLRMSEVLHTSTDYLLF")
-3.34
>>> result_number("HMYSYSGSVINTYKVPVSVVLKDANGSAIASWDLPVDQSLGISAKDIATSSGTIEITGDGVNETKTVTFTK")
-0.12
>>> result_number("HMNTETAVTKAIDQIQVMMDLRNRSVSFTRDQETGTDIIKVIDDNTGDTIRQMPSEELLTFMKNLTQ")
0.165
>>> result_number("HMHFEWNELRKAINDFLAEQNMNEDKQLGPYFIQRDIVVPETGTEIDSKKFSEVFKHKVIMYLFDDAAKQ")
0.0433

----------
- Assay Info: soluble fraction after stress (log2 fold change); higher = more stays soluble; pooled small domains, quantitative proteomics
- Recorded Conditions: stress: 75 degC
Examples of sequences with documented soluble fraction (log2) follow.
Measurement Label: soluble fraction (log2)

>>> result("HMVFRFELQPSSATPLYRQIVEQVTRAVAAGVLRDGEELPSVRAVAQEYVINPMTVSKAYSLLEAQSI")
-0.366
>>> result("HMTNKKIILEIFQNSDKPLIVEEISKKMFEKTGKKMILSTIYRNLKNMEDVGILKKIYNEDGSYMYIF")
-1.02
>>> result("HMPTFAEKLHEVRKARDFTQDQLAKEMNVSRQTISHWENGRAVPDIDTIKHLSQVLDYNFLV")
0.0869
>>> result("HMDVLIQEIGKRLRIQRLAMGLTQEELAKRAGISLSTLKLMEQQGKGSLQRLAKVAVVLDLDGDLRGLF")
-2.87

----------
- Assay Info: soluble fraction after stress (log2 fold change); higher = more stays soluble; pooled small domains, quantitative proteomics
- Recorded Conditions: stress: 75 degC
Measurement Label: soluble fraction (log2)

>>> result_number("HMLQIADEYLDRLQALFEDVRDNHFAIGDLLVELVDMHDSRRVDVINYIAGRLAISPTTLYDYENTARR")
-1.15
>>> result_number("HMYDKKVFRLLFILNQLDSRKKVSTGELAKEFNVSPRTVQRDIVLLNTTGFPIISLEKGYHSFMEGFSLK")
-1.19
>>> result_number("HMQLPTNAAAILRYLSSGAVKGVGSATAVRIVEKFGEETLNILEQDPLRLAEIRGISRDKAKKIGEDFASQ")
-0.322
>>> result_number("HMPKDMAKRASILTAASKLFVQHGYGGVSMDQIAAEAGVSKLTVYSHYGDKDSLFAAAVQAH")
-0.617
>>> result_number("HMDIASNQIQGIKDSVGGDENYSKMVAWALESLPAEEVKAFNDLTETANAPAIKMAVQGLYSQYNNAM")
0.195
>>> result_number("HMQDYISAEEAKSAALSASQVDSAGAAFSAAELGEKNGIPYYEVAFTADGLEYRYAIDAQTGTVIESSSSG")
0.156
>>> result_number("HMGSNLSFDLSQIIASRYQEKAAELGLTAPSLARTDLSPQEQATAEVVARAIIADYYDQRVAPFNDLIPQ")
-0.631
>>> result_number("HMKKVKVPNVVGMSLKEARDALSAVNIAVNQVAGSVEDKSVVTEQSLKAGDEVDEGSSLNLTTEYK")
0.878
